- Tested on: NCI H292
- ASSAY EXPLANATION: Cytotoxicity assay (Version 2), automated, AC50
- Format: cell-based, human
- EXPERIMENTAL SETUP: NCI H292 cells, no elastase, Version 2, activity concentration at -50%, 4 parameter Hill-fit
*1 amine or outer side, *2 acyl side, *3 side chain or, on linkers, in order; H or OH if unused. Where a SMILES comes first, the peptide text is derived from it. [ ]: non-standard residue; d: D form. The star is where a group is joined. X1 = CCCNC(=O)Nc1cccc(S(=O)(=O)Nc2cccc([C@@H](CC(=O)O)NC(=O)Nc3ccc(N*)cc3)c2)c1; Camptothecin(7-Et) = CCc1c2c(nc3ccccc13)-c1cc3c(c(=O)n1C2)COC(=O)[C@@]3(CC)O*; CO = O=C([*:1])[*:2]; Sar = CNCC(=O)O
Each entry below lists one item and its recorded AC50 value.

Bench note, NCI H292: CCCNC(=O)Nc1cccc(S(=O)(=O)Nc2cccc([C@@H](CC(=O)O)NC(=O)Nc3ccc(NC(=O)N(C)CC(=O)N(C)CC(=O)N(C)CC(=O)N(C)CC(=O)N[C@@H](CC(=O)O)C(=O)N4CCC[C@H]4C(=O)N[C@H](C(=O)O[C@]4(CC)C(=O)OCc5c4cc4n(c5=O)Cc5c-4nc4ccccc4c5CC)C(C)C)cc3)c2)c1 [Compound B6] ({X1-CO}-[Sar][Sar][Sar][Sar]DPV-{Camptothecin(7-Et)}) , AC50 reads 110 to 1000 nM

Form field AC50 for item CCCNC(=O)Nc1cccc(S(=O)(=O)Nc2cccc([C@H](CC(=O)O)NC(=O)Nc3ccc(NC(=O)NCCOCCOCCOCCC(=O)NCCNC(=O)CC[C@H](NC(=O)CCCC(=O)NCCN(C)CCN(C)CCN(C)CC(=O)NCC(=O)N4CCC[C@H]4C(=O)N[C@H](C(=O)O[C@]4(CC)C(=O)OCc5c4cc4n(c5=O)Cc5c-4nc4ccccc4c5CC)C(C)C)C(=O)NCCNC(=O)CCOCCOCCOCCNC(=O)Nc4ccc(NC(=O)N[C@@H](CC(=O)O)c5cccc(NS(=O)(=O)c6cccc(NC(=O)NCCC)c6)c5)cc4)cc3)c2)c1 on NCI H292: 11 to 100 nM

Proceeding to the next compound to report its AC50.
Per the reported NCI H292 data, CCCNC(=O)Nc1cccc(S(=O)(=O)Nc2cccc([C@@H](CC(=O)O)NC(=O)Nc3ccc(NC(=O)N(C)CC(=O)N(C)CC(=O)N(C)CC(=O)N(C)CC(=O)N(C)CC(=O)N(C)CC(=O)N(C)CC(=O)N(C)CC(=O)N[C@@H](CC(=O)O)C(=O)N4CCC[C@H]4C(=O)N[C@H](C(=O)O[C@]4(CC)C(=O)OCc5c4cc4n(c5=O)Cc5c-4nc4ccccc4c5CC)C(C)C)cc3)c2)c1 [Compound D3] ({X1-CO}-[Sar][Sar][Sar][Sar][Sar][Sar][Sar][Sar]DPV-{Camptothecin(7-Et)}) has AC50 of 110 to 1000 nM

----------
The compounds listed here are annotated with their pIC50.
- Test system: NCI H292
- ASSAY EXPLANATION: Cytotoxicity in vitro in the presence and absence of elastase (MTT assay)
- Type: cell-based, human
- EXPERIMENTAL SETUP: NCI H292 cells, with 10 nM elastase, 72 h
- Method: Cultivation of cells was performed according to standard procedures with the media recommended by the provider. The cells, in a total volume of 100 μL, were seeded in a 96-well plate with a white bottom (#3610). After a 24 h incubation period at 37° C. and 5% CO2, the medium was exchanged by adding 90 μL fresh medium. […] The proliferation was detected using the MTT assay (ATCC). […] The formed dye was detected at 570 nm. […]
pIC50: −log10 of the molar value. Counter-ions that a name gives are not always drawn.

For this compound ( CCCNC(=O)Nc1cccc(S(=O)(=O)Nc2cccc([C@@H](CC(=O)O)NC(=O)Nc3ccc(NC(=O)NCCOCCOCCOCCC(=O)N[C@@H](CC(=O)OCC[N+](C)(C)C)C(=O)N4CCC[C@H]4C(=O)N[C@H](C(=O)O[C@]4(CC)C(=O)OCc5c4cc4n(c5=O)Cc5c-4nc4ccccc4c5CC)C(C)C)cc3)c2)c1 [Compound C1, trifluoroacetate] ), measured pIC50 is 10.00 to 11.00

Reported pIC50 ( CCCNC(=O)Nc1cccc(S(=O)(=O)Nc2cccc([C@@H](CC(=O)OCC[N+](C)(C)C)NC(=O)Nc3ccc(NC(=O)NCCOCCOCCOCCC(=O)N[C@@H](CC(=O)OCC[N+](C)(C)C)C(=O)N4CCC[C@H]4C(=O)N[C@H](C(=O)O[C@]4(CC)C(=O)OCc5c4cc4n(c5=O)Cc5c-4nc4ccccc4c5CC)C(C)C)cc3)c2)c1 ) = 9.00 to 10.00

Further cases:
Data point: CCCNC(=O)Nc1cccc(S(=O)(=O)Nc2cccc([C@@H](CC(=O)O)NC(=O)Nc3ccc(NC(=O)NCCN(C)CCN(C)CCN(C)CC(=O)NCC(=O)N4CCC[C@H]4C(=O)N[C@H](C(=O)O[C@]4(CC)C(=O)OCc5c4cc4n(c5=O)Cc5c-4nc4ccccc4c5CC)C(C)C)cc3)c2)c1 ; pIC50 = > 11.00
